Data provenance is the DeepSol protein solubility set.

# Protocol description: soluble on expression in E. coli; label from the status in PepcDB or PDB records
Readout label: soluble on expression in E. coli

Consider the following illustrative entries.
| Chain | soluble on expression in E. coli |
| --- | --- |
| MSLRDEFSLIRSISPANVHQPSLHVGIGDDAAIYEGAPEMEEVLCVDTMVEEIHFRRDTLTPFQIGYKSLAINISDLAAMGATPKFYLVSIAVPPQWSDREIKTLYRGMAECAAPYRMDLIGGDTVSTNAKLVVTVTAVGHVPKGTRLLRQRARPGDVVFLTGTVGQSAAGLELLNKKGLHGPFTEEEELLVLAHQQPQPQVEAGHLFARSGYRIALNDVSDGVASEANELAEASKVKLVLKANTIPLHPAMETFSKEQQLEWALFGGEDFQLIGTAAVDAFASLQQLAIQRGISLTEIGYVEAGSPVVELEEGTARSVLKKSGYNHFAKEGHHHHHH | soluble |
| MGSDKIHHHHHHMTKEQSYPPTCIDCGTQNCKFKERTYPEFCLTTHLEQEDLEWALKQYNDNNKIMAASAEVEYEGYCRLTRVEEIMTFARKMGYKKLGIAYCIGLVNEARIFARILRANGFEVYSVICKVAGIAKSSIGIPKECEKIGAAMCNPILQARLLNQAYTELNVVIGLCVGHDSLFYKYSNAYTTTLVTKDRVTGHNPAAALYTANSYYRKKLMPEGEQSK | not soluble |
| MKPSHQQQKQASAAKDEKKDIIPLSAEKADGAEGWLNNSTILYTASNPTKTELFPYRIFTGKAKKLYQTDGQIVDVQINAREQMILLQITHSQKTAVVLLNAEGETLYEKDYETYELEAAWNQYDPYQMMVTEFNENWDFHTYQVNAKKDESFLSPVQVPFIHWTSKNTFDYVKEGRDDKTGPLYTFDTASKTEQKLEDNVLFFDSFHQMSFTVKSASGGKGTYQFKTPQSTSPVTAKWPLQAKYTSLAPMEYDYDEAGSLFYTFKQSGDAYKLAAINVASGETKDLVSLREMEPIQISPNGKYALYGFHFEQIILLKSHETKQLIIDQKEMELEHHHHHH | soluble |
| SMSGMKSSKSKDVLSAAEVMQWSQSLEKLLANQTGQNVFGSFLKSEFSEENIEFWLACEDYKKTESDLLPCKAEEIYKAFVHSDAAKQINIDFRTRESTAKKIKAPTPTCFDEAQKVIYTLMEKDSYPRFLKSDIYLNLLNDLQA | soluble |
| SSSLTSENAETKVGVFWDVEECPVPDGVEPSVVCENIKLALEKKGYRPCNVSIRVYGERTNKFKDDFLLADIMFLPAGDEGARFMRMCNDFFCWGNDNRKSTLMVMSRDSTEFASSFVMYKNLNFNILVAQPENVDRKCPVCRKPLEMIITDEWVWESLSAGGDPLPKTQEEPDLSNSCH | soluble |
| MGSDKIHHHHHHMRDLLQRPDLFSINTATLGYKTPLPAIIDACAARGIGAIAPWRRELQGEDLQQITRQLAASNMSVSGLCRSTYYTAPTLAERKLAIDDNRRALDDAAVLNAACYMQVVGGLPTGTKDLYEAREQVKQGIRQLLPHSKDVGVPIALEPLHPMTAADRSCLCTLRQALDWCDELDPDGEFGLGVAVDVYHVWWDPDLASQILRAGKRILAFHVSDWLMPTTDLVNDRGMPGDGVINIPSIRRLVENAGFNGAIELEIFSPYWWQKDINSTGNDSNLLIVFYVQIMPDDLVMQLHRF | not soluble |

Each of the following entries comes with a recorded value; kindly state soluble on expression in E. coli for each.
1. MLGMTHFSQQDNFSVAARVLGALFYYAPESAEAAPLVAVLTSDGWETQWPLPEASLAPLVTAFQTQCEETHAQAWQRLFVGPWALPSPPWGSVWLDRESVLFGDSTLALRQWMREKGIQFEMKQNEPEDHFGSLLLMAAWLAENGRQTECEELLAWHLFPWSTRFLDVFIEKAEHPFYRALGELARLTLAQWQSQLLIPVAVKPLFR
2. MGSDKIHHHHHHMTGTESGASGGQPANSDDWDAVTARREAEALIIDVDGFEGPLDLLLTLSRTQKVDLRRISILALTEQYLVFIEKARQLRIELAADYLVMAAWLAFLKSKLLLPPEPGEEGPSGEDLAAHLAFQLERLAAMRDCAARLMAQDRLGRDRFVRGQTQAMTTNRKVIYTAGLLDLMQAYARIRTKDEFRPFVMDREAVLTMEEALDRLRGMVGYMGDWADLMSYLPDGWTTDPAKRRSAAAANFAAALELAKAGRVEIRQADTFSPIQLRRKEP
3. GSHMYEYPVFSHVQAGMFSPELRTFTKGDAERWVSTTKKASDSAFWLEVEGNSMTTPTGSKTSFPDGMLILVDPEQAVEPGDFCIARLGGDEFTFKKLIRDSGQVFLQPLNPQYPMIPCNESCSVVGKVIASQ
4. MAHHHHHHMQQSSLVRRNVFHYTTVLTACTRAGQMDAAMMVFRQMKANKVKPNVYTYTTLINGCANAEKLDLALRIFAEMRLVEVPPNVKTMTALISVCSRCGQWKKGFQVLDQCEDLFIAPNALTYTAAMDGCRRAGVCTPAIALLEARMTDPSQVRPNEVTYNTVLGACAAAKDHKAALRVYARMVADGYEPIEYTRELLREVFRGTSLDGLADKLMVRVRTSKWEAYVPDSDPATALRAAQEGG
5. NDDKEAKKEAQEKEKNTPNGLVYTNLDFDSFKATIKNLKDKKVTFKEVNPDIIKDEVFDFVIVNRVLKKIKDLKHYDPMIEKIFDEKGKEMGLNVEIQINPEVKDFFTFKSISTTNKQRCFLSLRGETREILCDNKLYNMLLAVFNSYDPNDLLKHISTVESLKKIFYTITCEAVY
6. MEREKLELPENGKKLLLHSCCAPCSGEVMEAIVASGIDFSIFFYNPNIHPRKEYDLRKDENIRFAEKHGIPFIDADYDMDDWFKRAKGMEMEPERGIRCTMCFDMRFERTALYAYENGFDVISSSLGISRWKNMDQINDSGVRAAAQYPGITYWTYNWRKKGGSARMLEISKREKFYMQEYCGCAYSLRDTNKWRVEHGREKIRIGEKYYGDVTE

not soluble
not soluble
soluble
not soluble
soluble
not soluble
